test system: ATP; assay: switch fluorescence ratio, 500 uM ATP over buffer (Cy3 cluster intensity, sum of 5 cycles each) (fold (ratio)); higher = stronger signal-on switching upon ATP binding; sequences stand for … in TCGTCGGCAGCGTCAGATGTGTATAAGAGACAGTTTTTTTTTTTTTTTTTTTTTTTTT…TC; conditions: aptamer strand: ATP DNA aptamer (quencher-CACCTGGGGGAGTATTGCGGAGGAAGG + anchor), 100 nM annealed; ATP concentration: 500 uM;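 note: ATP exposure 15 min at 22 °C before imaging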
endpoint: switch fluorescence ratio
One number for each entry.

These solved cases illustrate the format of a correct answer.
sequence record	switch fluorescence ratio
GTGTGGCACT	0.999
TGGCTCGGGG	1.03
AGGTCAGCTT	1.01

Hello, I would appreciate it if you could give switch fluorescence ratio for each entry below.
1. GGAGAAAATG
2. AAGGGAACAA
3. AAAATATGGG
4. TCAAACCGCA
5. TATGTACTGT
6. ATCGGGGGTG
7. TTTTGTGGCT
8. CAGCGAGTCC

[1, 0.999, 0.987, 1.91, 1.09, 0.982, 0.98, 1.07]

Hello, I would appreciate it if you could give switch fluorescence ratio for each entry below.
1. TTCCATATTT
2. GTAGGACTTG
3. ACGGGTTTTT
4. CATGAGTATT

1: 1.02; 2: 0.953; 3: 0.999; 4: 0.954
